test: Mouse microsomal stability; conditions: mouse microsomes, stability half-life (text, printed Ti)

{"compound": "CCCc1nn2c(=O)cc(CSc3nc(-c4ccc(C)cc4)nc4cc(=O)[nH]n34)nc2s1 [Compound G199-0398]", "half-life": "~1.17 h"}

###

experiment: Dynamic light scattering particle size; assay type: physicochemical; conditions: DLS, without detergent, 40 μM compound

{"compound": "COC(=O)c1ccc(Cl)cc1NC(=O)CSc1ncc(S(=O)(=O)c2ccc(Br)cc2)c(=O)[nH]1 [Compound C200-5340]", "Particle size (no Tween)": "966 (40 μM) nm"}
{"compound": "COc1cc(C(=O)NS(=O)(=O)c2ccccc2C)ccc1Cc1cn(C)c2ccc(NC(=O)OC3CCCC3)cc12 [Compound S1633]", "Particle size (no Tween)": "823 (40 μM) nm"}
{"compound": "Oc1ccc(C2NCCc3c2[nH]c2ccc(Cl)cc32)cc1O (stereo not shown) [Compound C200-9144]", "Particle size (no Tween)": "1443 (40 μM) nm"}
{"compound": "Cc1ccc(CCNC(=O)c2cnn3c(O)c(Cc4cc(C)ccc4C)c(C)nc23)cc1 [Compound K786-9739]", "Particle size (no Tween)": "628 (40 μM) nm"}
{"compound": "Cc1cc(C(C#N)c2ccc(Cl)cc2)c(Cl)cc1NC(=O)c1cc(I)cc(I)c1O (stereo not shown) [Compound S4105]", "Particle size (no Tween)": "82 (40 μM) nm"}
{"compound": "CCCc1nn2c(=O)cc(CSc3nc(-c4ccc(C)cc4)nc4cc(=O)[nH]n34)nc2s1 [Compound G199-0398]", "Particle size (no Tween)": "268 (40 μM) nm"}
{"compound": "CN(CC(=O)N(Cc1ccc(C2CCCCC2)cc1)c1ccc(C(=O)O)cc1)S(=O)(=O)c1c(F)c(F)c(F)c(F)c1F [Compound S7337]", "Particle size (no Tween)": "144 (40 μM) nm"}

###

molecular target: AmpC β-lactamase (Escherichia coli, UniProt P00811); assay: biochemical; conditions: IC50 (AmpC, Triton), with detergent (0.01% Triton X-100)
Sequence (P00811 20-377): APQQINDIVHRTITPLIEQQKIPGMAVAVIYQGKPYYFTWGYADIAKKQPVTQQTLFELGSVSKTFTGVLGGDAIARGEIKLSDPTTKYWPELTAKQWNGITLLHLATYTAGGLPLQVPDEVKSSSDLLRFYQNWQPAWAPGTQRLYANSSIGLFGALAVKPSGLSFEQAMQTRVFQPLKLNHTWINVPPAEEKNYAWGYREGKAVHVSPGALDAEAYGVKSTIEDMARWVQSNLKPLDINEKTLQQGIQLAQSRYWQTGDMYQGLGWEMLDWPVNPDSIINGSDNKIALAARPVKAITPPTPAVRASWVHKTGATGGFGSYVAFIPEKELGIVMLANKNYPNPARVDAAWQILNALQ
pIC50: −log10 of the molar value.
assay metric: pIC50

{"molecule": "CN(CC(=O)N(Cc1ccc(C2CCCCC2)cc1)c1ccc(C(=O)O)cc1)S(=O)(=O)c1c(F)c(F)c(F)c(F)c1F [Compound S7337]", "measurement": "< 4.00"}
{"molecule": "Cc1cc(C(C#N)c2ccc(Cl)cc2)c(Cl)cc1NC(=O)c1cc(I)cc(I)c1O (stereo not drawn) [Compound S4105]", "measurement": "< 4.00"}
{"molecule": "COc1cc(C(=O)NS(=O)(=O)c2ccccc2C)ccc1Cc1cn(C)c2ccc(NC(=O)OC3CCCC3)cc12 [Compound S1633]", "measurement": "< 4.00"}

###

Property: inhibition at 5 µM; scope: individual compounds
test system: VSV-eGFP; assay: microbe, parasite or virus in culture; format: cell-based, vesicular stomatitis virus; conditions: Vesicular stomatitis virus, 6 h, read-out: VSV 5 μM
assay metric: inhibition at 5 µM

{"compound": "Cc1ccc(CCNC(=O)c2cnn3c(O)c(Cc4cc(C)ccc4C)c(C)nc23)cc1", "assay metric": "inhibition at 5 µM", "measurement": "35%"}
{"compound": "COc1cc(C(=O)NS(=O)(=O)c2ccccc2C)ccc1Cc1cn(C)c2ccc(NC(=O)OC3CCCC3)cc12", "assay metric": "inhibition at 5 µM", "measurement": "12%"}
{"compound": "COc1ccc(Nc2cc(C)c3cc(NC(=O)c4ccc(N(C)C)cc4)ccc3n2)cc1", "assay metric": "inhibition at 5 µM", "measurement": "5%"}
{"compound": "Oc1ccc(C2NCCc3c2[nH]c2ccc(Cl)cc32)cc1O (stereo not drawn)", "assay metric": "inhibition at 5 µM", "measurement": "76%"}
{"compound": "CCCc1nn2c(=O)cc(CSc3nc(-c4ccc(C)cc4)nc4cc(=O)[nH]n34)nc2s1", "assay metric": "inhibition at 5 µM", "measurement": "33%"}
{"compound": "COC(=O)c1ccc(Cl)cc1NC(=O)CSc1ncc(S(=O)(=O)c2ccc(Br)cc2)c(=O)[nH]1", "assay metric": "inhibition at 5 µM", "measurement": "20%"}

###

test system: VSV-eGFP; experiment: microbe, parasite or virus in culture; type: cell-based, vesicular stomatitis virus; conditions: Vesicular stomatitis virus, 6 h, read-out: VSV 10 μM
Parameter threshold = 50%. Response is TRUE when inhibition at 10 µM meets or exceeds it, else FALSE.

{"molecule": "Oc1ccc(C2NCCc3c2[nH]c2ccc(Cl)cc32)cc1O (stereo not drawn) [Compound C200-9144]", "assigned category": "TRUE"}
{"molecule": "CCCc1nn2c(=O)cc(CSc3nc(-c4ccc(C)cc4)nc4cc(=O)[nH]n34)nc2s1 [Compound G199-0398]", "assigned category": "TRUE"}
{"molecule": "Cc1ccc(CCNC(=O)c2cnn3c(O)c(Cc4cc(C)ccc4C)c(C)nc23)cc1 [Compound K786-9739]", "assigned category": "TRUE"}
{"molecule": "COc1cc(C(=O)NS(=O)(=O)c2ccccc2C)ccc1Cc1cn(C)c2ccc(NC(=O)OC3CCCC3)cc12 [Compound S1633]", "assigned category": "FALSE"}
{"molecule": "COc1ccc(Nc2cc(C)c3cc(NC(=O)c4ccc(N(C)C)cc4)ccc3n2)cc1 [Compound C066-4182]", "assigned category": "FALSE"}

###

Measured Kd (UniProtKB P14340)

{"molecule": "Oc1ccc(C2NCCc3c2[nH]c2ccc(Cl)cc32)cc1O (stereo not drawn)", "Kd / nM": 1200}
{"molecule": "COc1cc(C(=O)NS(=O)(=O)c2ccccc2C)ccc1Cc1cn(C)c2ccc(NC(=O)OC3CCCC3)cc12", "Kd / nM": 5200}
{"molecule": "COc1ccc(Nc2cc(C)c3cc(NC(=O)c4ccc(N(C)C)cc4)ccc3n2)cc1", "Kd / nM": 2200}

###

Property: CC50 at 24 h; scope: individual compounds
assay: Cytotoxicity assay (CellTiter-Glo); conditions: hamster
assay metric: CC50 at 24 h

{"compound": "Oc1ccc(C2NCCc3c2[nH]c2ccc(Cl)cc32)cc1O (stereo not shown)", "measurement": "> 50 µM"}
{"compound": "CCOc1ccc(CCNC(=O)c2cnn3c(O)cc(C4CCN(C(=O)OC(C)(C)C)CC4)nc23)cc1", "measurement": "> 100 µM"}
{"compound": "COc1ccc(Nc2cc(C)c3cc(NC(=O)c4ccc(N(C)C)cc4)ccc3n2)cc1", "measurement": "> 50 µM"}
{"compound": "COC(=O)c1ccc(Cl)cc1NC(=O)CSc1ncc(S(=O)(=O)c2ccc(Br)cc2)c(=O)[nH]1", "measurement": "> 50 µM"}
